Assign MIC of the compounds to each entry below.
System: Neisseria gonorrhoeae ISM 68/126
protocol.notes: MIC by microbroth dilution, Neisseria gonorrhoeae
Format: cell-based
test.context: Neisseria gonorrhoeae ISM 68/126 (code 997); 5% CO2, 48 h; 0.01% BSA; inocula about 10^4 (1-4), about 5×10^5 cfu/ml (5, 6)
One number for each entry, in µg/mL.

Q) // Input: CCN(CC)CCNC(=O)[C@@H]1CCCN1C(=O)[C@@H]1COC(c2csc(-c3ccc4c(n3)-c3csc(n3)-c3csc(n3)C(C(O)c3ccccc3)NC(=O)CNC(=O)c3nc(sc3CO)[C@H](C(C)C)NC(=O)c3nc(sc3C)[C@H](CC(=O)NC)NC(=O)c3csc-4n3)n2)=N1 (stereo partly drawn) . Output its MIC of the compounds only.
A) 32

Q) Fill in MIC of the compounds for record CNC(=O)CC1NC(=O)c2csc(n2)-c2ccc(-c3nc(C4=NC(C(=O)N5CCCC5C(N)=O)CO4)cs3)nc2-c2csc(n2)-c2csc(n2)C(C(O)c2ccccc2)NC(=O)CNC(=O)c2nc(sc2CN(C)C)C(C(C)C)NC(=O)c2nc1sc2C (stereo not drawn)
A) 4

Consider the additional molecule presented here.
Q) Specify MIC of the compounds for CCN(CC)CCNC(=O)[C@@H]1CCCN1C(=O)[C@@H]1COC(c2csc(-c3ccc4c(n3)-c3csc(n3)-c3csc(n3)C(C(O)c3ccccc3)NC(=O)CNC(=O)c3nc(sc3CN(C)C)[C@H](C(C)C)NC(=O)c3nc(sc3C)[C@H](CC(=O)NC)NC(=O)c3csc-4n3)n2)=N1 (stereo partly drawn) and stop.
A) 16
